FYI, the data here is from ChEMBL document CHEMBL3885881.

species on record: Rattus norvegicus; assay: DrugMatrix - Regimen: Daily Repeat; type: toxicity, organism-based, Sprague-Dawley; set-up: regimen Daily Repeat, gender Male, age 6-8 weeks; settings: in vivo, po, 10 mg/kg, 120 h, tissue Plasma, route oral GAVAGE, dose level Low, time 5 day, vehicle .5 % CMC
readout type: URIC ACID (mg/dL)

INSERT INTO assay_data (compound, value_unit, reading) VALUES
  ('COc1c(C)c2c(c(O)c1C/C=C(\C)CCC(=O)OCCN1CCOCC1)C(=O)OC2 [MYCOPHENOLATE MOFETIL]', 'mg/dL', 1.37),
  ('CC(=O)O[C@]1(C(C)=O)CC[C@H]2[C@@H]3C=C(Cl)C4=CC(=O)CC[C@]4(C)[C@H]3CC[C@@]21C [CHLORMADINONE ACETATE]', 'mg/dL', 1.77),
  ('O=C1CN=C(c2ccccc2)c2cc([N+](=O)[O-])ccc2N1 [NITRAZEPAM]', 'mg/dL', 2.13),
  ('NS(=O)(=O)c1cc2c(cc1Cl)NCNS2(=O)=O [HYDROCHLOROTHIAZIDE]', 'mg/dL', 2);
